# System: LOX IMVI melanoma
# TEST NAME: NCI tumour cell line growth inhibition, 48 h; in the data active means GI50 below about 0.43 µM; inactive means the rest
Allowed answers: 1 = active, 0 = inactive

COc1ccc(C2SCC(=O)N2NC(=O)C(O)c2ccccc2)cc1 (stereo not drawn) = 0

QUERY: Hi, sorry to bother you, what did the test record for COC1C(O)CC(OC2CC(OC3CC(O[C@@H]4C(=O)c5c(cc6cc(OC7CC(OC8CC(O)C(O)C(C)O8)C(O)C(C)O7)c(C)c(O)c6c5O)C[C@H]4[C@H](OC)C(=O)[C@@H](O)[C@@H](C)O)OC(C)C3O)OC(C)C2O)OC1C (stereo partly drawn) ?
RESULT: 1

QUERY: Hi, sorry to bother you, what did the test record for `COc1cc(O)c2c(=O)c(OC)c(-c3ccc(OC)c(OC)c3)oc2c1.[Zn+2]` ?
RESULT: 0

QUERY: Hi, sorry to bother you, what did the test record for O=c1oc2c(cc1-c1ccccc1)C(O)Oc1ccccc1-2 (stereo not drawn) ?
RESULT: 0

QUERY: Hi, sorry to bother you, what did the test record for `C[C@@H]1CC[C@@H]2[C@@H]1[C@H](OC(=O)c1ccc3ccccc3c1)[C@]1(C3CCCCC3)C[C@@H](OC(=O)CO)[C@@]2(C)O1` ?
RESULT: 0

QUERY: Hi, sorry to bother you, what did the test record for `c1ccc2c(-c3cnn4cc(-c5ccc(N6CCNCC6)cc5)cnc34)ccnc2c1` ?
RESULT: 0

QUERY: Hi, sorry to bother you, what did the test record for `O=C(Nc1nc(-c2ccccc2)cs1)c1cc(O)c(O)c(O)c1` ?
RESULT: 0

QUERY: Hi, sorry to bother you, what did the test record for `O=C(O)c1cc2cc(O)ccc2[nH]1` ?
RESULT: 0

====

Listed below: TGI values for each entry.
# System: SN12C renal
# TEST NAME: NCI tumour cell line growth inhibition, 48 h

Please review the following examples before continuing.
CC(=O)Oc1ccccc1C(=O)NCCC[Se]C#N = 12.4 µM
COC(=O)[C@@H]1[C@H](O)[C@H](C)[C@H](O)[C@H](C)/C=C\C=C(C)C(=O)Nc2c(C)c(OC(C)=O)c3c(c2O)C(=O)C(C)=C2OCOC(=C23)C(C)=C[C@@](C)(O)[C@H](O)[C@@H](C)[C@H]1OC(C)=O = > 100 µM
O=[N+]([O-])c1cc2ccc1OCc1cccc(n1)COc1ccc(cc1[N+](=O)[O-])C=NCCCCCCCCN=C2 = > 100 µM
O=C1COc2cc3c(cc2N1)SCCC(=O)N3 = > 100 µM
O=C(/C=N/O)Nc1ccc(Cl)c(I)c1 = 63.9 µM

Memo: COC(=O)C1=CO[C@@H](OC2OC(CO)C(O)C(O)C2O)[C@@H]2[C@H](C)[C@@H](O)[C@@H](O)[C@]12O (some centres undefined) , reported TGI: > 100 µM

Memo: `O=C(O)c1nnsc1-c1csnn1` , reported TGI: > 100 µM

Memo: COc1cc(/C=C2\CC(C)C/C(=C\c3ccc(O)c(OC)c3)C2=O)ccc1O (centres undefined) , reported TGI: 8.35 µM

Memo: `OCc1ncc(-c2ccccc2)s1` , reported TGI: > 100 µM

====

# Tested on: SF-268 CNS
# TEST NAME: NCI tumour cell line growth inhibition, 48 h
READOUT: TGI

Please review the following examples before continuing.
COc1ccc(-c2cc(=O)c3ccc(F)cc3[nH]2)cc1 = > 100 µM
O=C1c2ccccc2C(=O)c2sc(Nc3ccc(Cl)cc3)nc21 = 5.52 µM
C[CH2][Ge]([CH2]C)([CH2]C)[O]C(=O)C([O][Ge]([CH2]C)([CH2]C)[CH2]C)c1ccccc1 (stereo unspecified) = > 100 µM
COC(=O)[C@@H]1[C@H](O)[C@H](C)[C@H](O)[C@H](C)/C=C\C=C(C)C(=O)Nc2c(C)c(OC(C)=O)c3c(c2O)C(=O)C(C)=C2OCOC(=C23)C(C)=C[C@@](C)(O)[C@H](O)[C@@H](C)[C@H]1OC(C)=O = > 100 µM
Cc1cccc(Cl)c1NC(=O)c1cccc([N+](=O)[O-])c1O = 96.5 µM

Here is another molecule to look at.
Memo: Cc1ccccc1C1CC(=O)CC(c2ccccc2C)C12C(=O)NC(=S)NC2=O (stereo unspecified) , reported TGI: > 100 µM

====

# System: K-562 leukemia
# TEST NAME: NCI tumour cell line growth inhibition, 48 h
Listed below: TGI values for each entry.

Please review the following examples before continuing.
Nc1cc(N)cc(Cc2ccccc2)c1 = > 100 µM
Nc1ncc(N)c(NCC2(CO)CC(CCc3ccccc3)C2)n1 (configuration not stated) = 12.9 µM
Cc1nnc2n1N=C(c1ccc(-c3ccc([N+](=O)[O-])cc3)o1)CS2 = > 100 µM
O=C(Nc1cc(C(F)(F)F)cc(C(F)(F)F)c1)Nc1ccc(OCc2nnc(-c3ccc(Cl)cc3)o2)c(F)c1 = 24.3 µM

Memo: `COC(=O)/C=C/c1ccc2c(c1)[C@H](C(=O)OC)[C@@H](c1ccc(O)cc1)O2` , reported TGI: > 100 µM

Memo: `Oc1ccccc1-c1n[nH]c(-c2ccccc2O)n1` , reported TGI: > 100 µM

Memo: `O=C1c2ccccc2C(=O)c2sc(Nc3ccc(Cl)cc3)nc21` , reported TGI: 5.12 µM

====

# Tested on: MDA-MB-231 breast
# TEST NAME: NCI tumour cell line growth inhibition, 48 h
Listed below: GI50 values for each entry.

Please review the following examples before continuing.
CCCC(=O)O[C@]1(C)CC[C@@H]2[C@H]3[C@@H]1[C@@H]1C/C(C)=C\CC[C@](C)(OC(=O)[C@@H]2C)[C@H]3O1 = 25.5 µM
N#CSCC1CC(O)(c2ccccc2)CC(c2ccc(Cl)cc2)O1 (stereo not given) = 2.8 µM
OCC#CCCCCOCC#Cc1ccccc1C#CCOCCCCC#CCO = 16.1 µM
O=c1oc2c(cc1-c1ccccc1)C(O)Oc1ccccc1-2 (stereo not given) = 15.5 µM

Here is another compound to look at.
Memo: `NC(=NCCO)c1ccc(N2CCCN(c3ccc(C(N)=NCCO)cc3)CC2)cc1` , reported GI50: > 100 µM

====

# Test system: NCI-H23 lung
# TEST NAME: NCI tumour cell line growth inhibition, 48 h
Listed below: TGI values for each entry.

Please review the following examples before continuing.
C/C=C/C=C/CCCCCCCCCCCCC[C@]1(OC)C=CC(CC(=O)OC)OO1 (stereo partly drawn) = 36.8 µM
CN(C)c1cccc(/C=C(\C#N)c2ccccc2)c1 = 45 µM
O=C1OC(C2Cc3ccc4c(c3C2=O)CCCC4)c2ccccc21 (stereo not drawn) = > 100 µM
Cc1ccc(/C=C2\CCCCCC2=O)cc1 = > 100 µM
Cc1ccc(S(=O)(=O)N[C@@H](Cc2ccccc2)C(=O)CCl)cc1 = 51.4 µM

Here is another molecule to look at.
Memo: `Cn1c(-c2cccs2)cc(-c2ccsc2)c1-c1cccs1` , reported TGI: > 100 µM

====

Listed below: TGI values for each entry.
# Tested on: TK-10 renal
# TEST NAME: NCI tumour cell line growth inhibition, 48 h

NC(=NCCO)c1ccc(N2CCCN(c3ccc(C(N)=NCCO)cc3)CC2)cc1 = > 100 µM
COc1cc2c(c(OC)c1OC)C(=O)c1c-2n(CCCN=[N+]=[N-])c(=O)c2cc([N+](=O)[O-])ccc12 = > 100 µM
Cc1ccc(N(/C=C/C(=O)C(F)(F)F)CC(=O)c2ccc(Cl)c(Cl)c2)cc1 = 24.5 µM
N=C1N=C(N)S/C1=C\c1ccc2ncccc2c1 = > 25 µM
N=C(N)SCCN1CCCCC1 = > 100 µM

Here is another molecule to look at.
Memo: `Brc1ccc(N=Nc2ccc3ccccc3n2)cc1` , reported TGI: 56.6 µM

====

# Test system: NCI-H460 lung
# TEST NAME: NCI tumour cell line growth inhibition, 48 h
READOUT: TGI (µM)
# output: bare number, implied unit µM

O=[N+]([O-])c1cc(Cl)ccc1S(=O)(=O)c1ccc(Cl)cc1[N+](=O)[O-] = 31.5

Here is another compound to look at.
Memo: `C=C1C(=O)O[C@H]2[C@H]1CC/C(COC(=O)C(=O)c1c[nH]c3ccc(Cl)cc13)=C\CC[C@@]1(C)O[C@@H]21` , reported TGI: 5.93

====

# Test system: HS 578T breast
# TEST NAME: NCI tumour cell line growth inhibition, 48 h; in the data active = GI50 below about 0.43 µM; inactive = the rest
Allowed answers: True = active, False = inactive

Study these solved cases before continuing.
C[C@@H]1CC[C@@H]2[C@@H]1[C@H](OC(=O)c1ccc3ccccc3c1)[C@]1(C3CCCCC3)C[C@@H](OC(=O)CO)[C@@]2(C)O1 = True
COc1cc2oc(-c3cccc(C(=O)Nc4ccc(C)cc4)c3)cc(=O)c2c(OC)c1OC = False
CC(=O)[O][Hg][CH2]C1(C)COC(C)([CH2][Hg][O]C(C)=O)CO1 (configuration not stated) = False
Cc1ccc(S(=O)(=O)N[C@@H](Cc2ccccc2)C(=O)CCl)cc1 = False
C[n+]1cc2cc3c(cc2c2ccccc21)OCO3 = False

QUERY: Hi, sorry to bother you, what did the test record for `CC(C)c1ccc(/C=N/N=C(N)N)cc1` ?
RESULT: False

QUERY: Hi, sorry to bother you, what did the test record for `NC(=S)N/N=C/c1ccc(OC(=O)COc2ccccc2)cn1` ?
RESULT: False

QUERY: Hi, sorry to bother you, what did the test record for CC(=O)OC1CC2(O)C(CCC3(C)C(c4ccc(=O)oc4)CCC32O)C2(C)CCC(OC3OC(CO)C(O)C(O)C3O)C=C12 (configuration not stated) ?
RESULT: True

QUERY: Hi, sorry to bother you, what did the test record for `O=C(O)c1cc2cc(O)ccc2[nH]1` ?
RESULT: False

QUERY: Hi, sorry to bother you, what did the test record for `Cn1ccc2c3c(=O)cc[nH]c3ccc21` ?
RESULT: False

QUERY: Hi, sorry to bother you, what did the test record for `CC(=O)Oc1ccccc1C(=O)NCCC[Se]C#N` ?
RESULT: False

QUERY: Hi, sorry to bother you, what did the test record for `CCCC(CCC)Oc1ccc(CCCC2=C(O)c3ccccc3C(=O)C2=O)cc1` ?
RESULT: False
